# Lookup of reported Emax keyed by entry
- Tested on: Ebola virus
- ASSAY TEXT: microbe, parasite or virus in culture
- Type: cell-based, Ebolavirus (EBOV)
- PARTICULARS: Zaire ebolavirus, Vero, read-out: Max Effect Vero
Where a name gives a salt, the structure may show the parent alone.

{"COMPOUND": "CC(C)COCC(CN(Cc1ccccc1)c1ccccc1)N1CCCC1 (stereo not drawn) [Bepridil Hydrochloride Monohydrate]", "Emax, %": 97}
{"COMPOUND": "COc1ccc(CN2CCN(C(c3ccc(F)cc3)c3ccc(F)cc3)CC2)c(OC)c1OC [Lomerizine Dihydrochloride]", "Emax, %": 89.9}
{"COMPOUND": "CO[C@H]1C[C@H](O[C@H]2CC[C@]3(C=O)[C@H]4CC[C@]5(C)[C@@H](C6=CC(=O)OC6)CC[C@]5(O)[C@@H]4CC[C@]3(O)C2)O[C@H](C)[C@H]1O", "Emax, %": 74.2}
